- tested.on: human TGR5 (Homo sapiens)
- Construct: expressed in transfected cells; host or cells: HEK293
- protocol.notes: Cell-based TGR5 assay (cAMP generation, HTRF)
- particulars: HEK293 cells stably transfected with human TGR5; cAMP by HTRF; 30 minutes at 37° C.; read-out: pEC50 Human TGR5 (converted)
Record form. Attribute: EC50. Fill in for each entry.

1. Cc1ccc(SCCCCC(=O)N(C)C[C@H](O)[C@@H](O)[C@H](O)[C@H](O)CO)nc1CNC1(c2cnccc2-c2ccccc2OC2CC2)CC1    126 to 1000 nM
2. CN(C)C[C@H](NC(=O)CCCCc1cc(Cl)c(COC2(c3cnccc3-c3ccccc3OC3CC3)CC2)cc1Cl)[C@@H](O)[C@H](O)[C@H](O)CO    < 100 nM
3. CC(CCCN(C(=O)[C@@H](O)[C@@H](O)[C@H](O)[C@@H](O)CO)C1CCS(=O)(=O)CC1)c1ccc(Cl)c(COC2(c3cnccc3-c3ccccc3OC3CC3)CC2)c1 (some centres unmarked)    < 100 nM
4. CS(=O)(=O)CCN(CCCCSc1ccc(Cl)c(COC2(c3cnccc3-c3ccccc3OC3CC3)CC2)c1)C[C@H](O)[C@@H](O)[C@H](O)[C@H](O)CO    < 100 nM
5. CCOC(=O)NCCCN(CCCSc1ccc(Cl)c(CNC2(c3cnccc3-c3ccccc3OC3CC3)CC2)c1)C(=O)[C@@H](O)[C@@H](O)[C@H](O)[C@@H](O)CO    < 100 nM
6. CS(=O)(=O)NCCCN(CCCSc1ccc(Cl)c(COC2(c3cnccc3-c3ccccc3OC3CC3)CC2)c1)C(=O)[C@@H](O)[C@@H](O)[C@H](O)[C@@H](O)CO    126 to 1000 nM
7. O=C(O)COCC(=O)N(CCCCc1cc(Cl)c(COC2(c3cnccc3-c3ccccc3OC3CC3)CC2)cc1Cl)C[C@H](O)[C@@H](O)[C@H](O)[C@H](O)CO (stereo in doubt)    126 to 1000 nM
8. Cc1ccc(SCCCN(C(=O)[C@@H](O)[C@@H](O)[C@H](O)[C@@H](O)CO)C2CCOCC2)cc1COC1(c2cnccc2-c2ccccc2OC2CC2)CC1    126 to 1000 nM

Look up EC50 for the entries below, preserving their order.
1. CN(CCCCc1cc(Cl)c(COC2(c3cnccc3-c3ccccc3OC3CC3)CC2)cc1Cl)C(=O)[C@@H](O)[C@@H](O)[C@H](O)[C@@H](O)CN1CCOCC1 (stereo in doubt)
2. CC(=O)N(CCCCCSc1ccc(Cl)c(CNC2(c3cnccc3-c3ccccc3OC3CC3)CC2)c1)C[C@H](O)[C@@H](O)[C@H](O)[C@H](O)CO
3. Cn1c(C(=O)N[C@@H](CO)[C@@H](O)[C@H](O)[C@H](O)CO)cnc1SCc1ccc(Cl)c(COC2(c3cnccc3-c3ccccc3OC3CC3)CC2)c1

OUTPUT:
< 100 nM
< 100 nM
126 to 1000 nM

====

- tested.on: human TGR5 (Homo sapiens)
- Construct: expressed in transfected cells; host or cells: HEK293
- protocol.notes: Cell-based TGR5 assay (cAMP generation, HTRF)
- particulars: HEK293 cells stably transfected with human TGR5; cAMP by HTRF; 30 minutes at 37° C.; read-out: pEC50 Human TGR5 (converted)
For each entry below, report its EC50 value.

1. O=C1NCCN1CCN(CCCCSc1ccc(Cl)c(CNC2(c3cnccc3-c3ccccc3OC3CC3)CC2)c1)C(=O)[C@@H](O)[C@@H](O)[C@H](O)[C@@H](O)CO    126 to 1000 nM
2. FC(F)(F)COc1ccccc1-c1ccncc1C1(NCc2cc(Cl)ccc2Cl)CC1    126 to 1000 nM

// each compound listed below needs its EC50
1. Cc1ccc(SCCCCN(CCS(C)(=O)=O)C[C@H](O)[C@@H](O)[C@H](O)[C@H](O)CO)cc1COC1(c2cnccc2-c2ccccc2OC2CC2)CC1
2. O=C(NCCCCCc1cc(Cl)c(COC2(c3cnccc3-c3ccccc3OC3CC3)CC2)cc1Cl)NC[C@H](O)[C@@H](O)[C@H](O)[C@H](O)CO (stereo in doubt)
3. COc1ccccc1-c1ccncc1C1(NCc2cc(Cl)c(CCCCC(=O)NC[C@H](O)[C@@H](O)[C@H](O)[C@H](O)CO)cc2Cl)CC1

OUTPUT:
< 100 nM
< 100 nM
126 to 1000 nM

Need EC50 for each of these compounds.
1. CCCN(C[C@H](O)[C@@H](O)[C@H](O)[C@H](O)CO)C(=O)CCCCc1cc(Cl)c(COC2(c3cnccc3-c3ccccc3OC3CC3)CC2)cc1Cl
2. Cc1ccc(C)c(CNC2(c3cnccc3-c3ccccc3OC3CC3)CC2)c1
3. COCC(=O)N(CCCCc1cc(Cl)c(COC2(c3cnccc3-c3ccccc3OC3CC3)CC2)cc1Cl)C[C@H](O)[C@@H](O)[C@H](O)[C@H](O)CO
4. Clc1ccc(Cl)c(CNC2(c3cnccc3-c3ccccc3OC3CCOC3)CC2)c1 (stereo not shown)

OUTPUT:
1: < 100 nM; 2: < 100 nM; 3: < 100 nM; 4: 126 to 1000 nM

====

- tested.on: human TGR5 (Homo sapiens, UniProt Q8TDU6)
- Construct: expressed in transfected cells; host or cells: HEK293
- Sequence (Q8TDU6 1-330): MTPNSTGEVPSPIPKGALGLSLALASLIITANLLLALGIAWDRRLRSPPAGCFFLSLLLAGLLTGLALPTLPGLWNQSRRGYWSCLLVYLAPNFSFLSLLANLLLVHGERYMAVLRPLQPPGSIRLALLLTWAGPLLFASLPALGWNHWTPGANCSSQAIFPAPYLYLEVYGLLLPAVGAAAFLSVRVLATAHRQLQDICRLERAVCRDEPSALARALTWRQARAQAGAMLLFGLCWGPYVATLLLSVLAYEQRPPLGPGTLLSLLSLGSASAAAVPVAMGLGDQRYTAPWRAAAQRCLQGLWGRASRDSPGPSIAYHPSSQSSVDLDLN
- protocol.notes: Cell-based TGR5 assay (cAMP generation, HTRF)
- particulars: HEK293 cells stably transfected with human TGR5; cAMP by HTRF; 30 minutes at 37° C.; read-out: pEC50 Human TGR5 (converted)
readout.name: EC50

Sample answers from the record:
1. Cc1cnc(SCCCC(=O)NC[C@H](O)[C@@H](O)[C@H](O)[C@H](O)CO)nc1CNC1(c2cnccc2-c2ccccc2OC2CC2)CC1 [Compound I-655]    12600 to 50100 nM
2. Cc1ccc(SCCCC(=O)N(C)C[C@H](O)[C@@H](O)[C@H](O)[C@H](O)CO)cc1COC1(c2cnccc2-c2ccccc2OC2CC2)CC1 [Compound I-652]    < 100 nM
3. O=C(CCCCc1ccc(Cl)c(COC2(c3cnccc3-c3ccccc3OC3CC3)CC2)c1)NC[C@H](O)[C@@H](O)[C@H](O)[C@H](O)CO (stereo in doubt) [Compound I-231]    < 100 nM
4. CS(=O)(=O)CC(=O)N(CCCCc1cc(Cl)c(COC2(c3cnccc3-c3ccccc3OC3CC3)CC2)cc1Cl)C[C@H](O)[C@@H](O)[C@H](O)[C@H](O)CO [Compound I-202]    < 100 nM
5. O=C(NCCCCc1cc(Cl)c(COC2(c3cnccc3-c3ccccc3OC3CC3)CC2)cc1Cl)NC[C@H](O)[C@@H](O)[C@H](O)[C@H](O)CO [Compound I-141]    < 100 nM

For each listed entry, give its EC50.
1. Cc1ccc(CCCCNC(=O)NC[C@H](O)[C@@H](O)[C@H](O)[C@H](O)CO)cc1COC1(c2cnccc2-c2ccccc2OC2CC2)CC1 [Compound I-239]
2. O=C1CCCN1CCCN(CCCCSc1ccc(Cl)c(CNC2(c3cnccc3-c3ccccc3OC3CC3)CC2)c1)C(=O)[C@@H](O)[C@@H](O)[C@H](O)[C@@H](O)CO [Compound I-554]
3. CC(=O)NCCCCN(CCCCSc1ccc(Cl)c(COC2(c3cnccc3-c3ccccc3OC3CC3)CC2)c1)C(=O)[C@@H](O)[C@@H](O)[C@H](O)[C@@H](O)CO [Compound I-568]
4. CC(CCCN(CC1CCOCC1)C(=O)[C@@H](O)[C@@H](O)[C@H](O)[C@@H](O)CO)c1ccc(Cl)c(CNC2(c3cnccc3-c3ccccc3OC3CC3)CC2)c1 (some centres unmarked) [Compound I-287]
5. CS(=O)(=O)NCCN(CCCCSc1ccc(Cl)c(CNC2(c3cnccc3-c3ccccc3OC3CC3)CC2)c1)C(=O)[C@@H](O)[C@@H](O)[C@H](O)[C@@H](O)CO [Compound I-571]
6. CC(=O)N(CCCCC(C)c1ccc(Cl)c(CNC2(c3cnccc3-c3ccccc3OC3CC3)CC2)c1)C[C@H](O)[C@@H](O)[C@H](O)[C@H](O)CO (some centres unmarked) [Compound I-378]

OUTPUT:
["126 to 1000 nM", "126 to 1000 nM", "< 100 nM", "< 100 nM", "< 100 nM", "< 100 nM"]
